B1: Hairpin Ribozyme (parent)
chain: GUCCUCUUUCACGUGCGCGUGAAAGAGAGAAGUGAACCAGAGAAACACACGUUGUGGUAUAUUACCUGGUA

- Variants of: B1
- Assay info: self-cleavage, relative activity (ratio to wild type); higher = more cleavage; co-transcriptional
Quantity name: self-cleavage
The answer should be a number; do not append a unit.

Check out these entries, answers already filled in.
U5C U55C    0.2
G21A G54A    0.491

Incoming: For the variant G19U G69U , what self-cleavage is on record?
Outgoing: 0.227

Incoming: Query A44G A71C next
Outgoing: 0.143

Incoming: Item: A11U A28G
Outgoing: 0.929

Incoming: Similarly, A44C A47U ?
Outgoing: 0.135

Incoming: Another variant to look at: A22U G25U
Outgoing: 0.253

Incoming: Field entry: C4A G57C
Outgoing: 0.156
